Data credit: paper PMC10527514

molecular target: PPARγ (Homo sapiens, UniProt P37231); experiment: PathHunter nuclear hormone receptor cell assay, chemiluminescence
Sequence (P37231 whole entry): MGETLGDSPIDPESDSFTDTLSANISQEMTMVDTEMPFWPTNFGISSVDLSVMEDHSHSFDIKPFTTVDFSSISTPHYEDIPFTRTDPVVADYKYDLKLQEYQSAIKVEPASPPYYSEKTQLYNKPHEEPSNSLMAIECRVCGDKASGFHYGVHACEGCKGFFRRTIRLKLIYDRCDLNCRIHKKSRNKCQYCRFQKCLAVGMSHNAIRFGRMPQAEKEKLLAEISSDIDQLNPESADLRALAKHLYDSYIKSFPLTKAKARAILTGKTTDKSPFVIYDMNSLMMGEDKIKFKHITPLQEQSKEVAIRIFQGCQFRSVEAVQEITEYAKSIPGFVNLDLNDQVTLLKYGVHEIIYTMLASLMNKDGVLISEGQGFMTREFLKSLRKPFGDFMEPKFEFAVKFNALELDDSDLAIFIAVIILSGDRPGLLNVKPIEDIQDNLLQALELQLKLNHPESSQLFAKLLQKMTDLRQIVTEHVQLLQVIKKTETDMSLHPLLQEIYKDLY
measurement label: EC50 (µM)
Reply numerically in µM, unit not repeated.

Query: EC50; subject: CCCCCOc1cccc(C(=O)O)c1C [SEFA-6179]
40

----------
molecular target: GPR84 (Homo sapiens, UniProt Q9NQS5); assay: Hit Hunter cAMP assay in cAMP Hunter cells
Sequence (Q9NQS5 whole entry): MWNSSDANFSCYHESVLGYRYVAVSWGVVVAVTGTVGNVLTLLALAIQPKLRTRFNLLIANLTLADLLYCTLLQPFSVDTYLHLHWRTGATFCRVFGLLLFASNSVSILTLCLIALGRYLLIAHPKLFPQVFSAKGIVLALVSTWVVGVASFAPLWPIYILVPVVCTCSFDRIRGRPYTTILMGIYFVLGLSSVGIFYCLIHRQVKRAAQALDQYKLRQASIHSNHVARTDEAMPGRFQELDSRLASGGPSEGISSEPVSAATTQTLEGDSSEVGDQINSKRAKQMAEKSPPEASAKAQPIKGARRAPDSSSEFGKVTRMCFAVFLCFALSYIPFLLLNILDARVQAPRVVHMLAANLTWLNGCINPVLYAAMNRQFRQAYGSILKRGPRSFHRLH
measurement label: pEC50
In simple prose, pEC50 is minus the logarithm base ten of a concentration in moles per litre.

What value of pEC50 on GPR84 (Homo sapiens, UniProt Q9NQS5) does `CCCCCOc1cccc(C(=O)O)c1C` have?
4.92

----------
biological target: PPARα (Homo sapiens, UniProt Q07869); assay: PathHunter nuclear hormone receptor cell assay, chemiluminescence
Sequence (Q07869 whole entry): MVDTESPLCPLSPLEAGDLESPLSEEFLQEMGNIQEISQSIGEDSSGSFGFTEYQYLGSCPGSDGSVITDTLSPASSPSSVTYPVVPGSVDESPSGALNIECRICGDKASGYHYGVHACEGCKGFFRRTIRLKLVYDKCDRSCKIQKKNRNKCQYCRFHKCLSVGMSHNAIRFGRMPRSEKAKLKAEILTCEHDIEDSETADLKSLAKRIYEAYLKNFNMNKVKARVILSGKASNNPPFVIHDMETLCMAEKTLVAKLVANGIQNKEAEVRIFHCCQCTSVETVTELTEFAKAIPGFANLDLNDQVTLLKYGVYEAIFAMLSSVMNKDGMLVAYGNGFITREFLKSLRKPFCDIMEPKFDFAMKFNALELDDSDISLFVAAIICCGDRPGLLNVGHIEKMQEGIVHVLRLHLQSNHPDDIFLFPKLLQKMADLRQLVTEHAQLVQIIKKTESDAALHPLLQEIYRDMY
measurement label: EC50 (µM)
Reply numerically in µM, unit not repeated.

Query: EC50; subject: `CCCCCOc1cccc(C(=O)O)c1C`
4.4
